- Test system: Pasteurella multocida 17E
- METHOD: conventional broth-dilution microtiter test, MIC
- Format: cell-based
- EXPERIMENTAL PARAMETERS: bovine isolate
ENDPOINT: MIC (minimal inhibitory concentration)

{"COMPOUND": "CCC(=O)OC1CC(=O)OC(CC)C(C)C=C(C)C=CC(=O)C(C)CC(CC=O)C(OC2OC(C)C(OC3CC(C)(O)C(OC(=O)CC)C(C)O3)C(N(C)C)C2OC(C)=O)C1C (stereo not shown)", "TARGET OF ASSAY": "Pasteurella multocida 17E", "OBSERVED VALUE": 50}
{"COMPOUND": "CCC(=O)OC1C(C)OC(OC2C(C)OC(OC3C(CC=O)CC(C)C(=O)C=CC(C)=CC(C)C(CC)OC(=O)CC(O)C3C)C(O)C2N(C)C)CC1(C)O (stereo not shown)", "TARGET OF ASSAY": "Pasteurella multocida 17E", "OBSERVED VALUE": 6.25}
{"COMPOUND": "CCC(=O)OC1CC(=O)OC(CC)C(C)C=C(C)C=CC(=O)C(C)CC(CC=O)C(OC2OC(C)C(OC3CC(C)(O)C(OC(=O)CC)C(C)O3)C(N(C)C)C2O)C1C (stereo not shown)", "TARGET OF ASSAY": "Pasteurella multocida 17E", "OBSERVED VALUE": 25}
{"COMPOUND": "CCC(=O)OCC1C=C(C)C=CC(=O)C(C)CC(CC=O)C(OC2OC(C)C(OC3CC(C)(O)C(OC(=O)CC)C(C)O3)C(N(C)C)C2O)C(C)C(OC(=O)CC)CC(=O)OC1CC (stereo not shown)", "TARGET OF ASSAY": "Pasteurella multocida 17E", "OBSERVED VALUE": 25}

---

- Tested on: Streptococcus Group D X66
- METHOD: standard agar-dilution assay, MIC
- Format: cell-based

{"COMPOUND": "CCC(=O)OC1CC(=O)OC(CC)C(C)C=C(C)C=CC(=O)C(C)CC(CC=O)C(OC2OC(C)C(OC3CC(C)(O)C(OC(=O)CC)C(C)O3)C(N(C)C)C2O)C1C (centres unmarked)", "TARGET OF ASSAY": "Streptococcus Group D X66", "REL": "=", "MIC (minimal inhibitory concentration)": 1}
{"COMPOUND": "CCC(=O)OC1CC(=O)OC(CC)C(C)C=C(C)C=CC(=O)C(C)CC(CC=O)C(OC2OC(C)C(OC3CC(C)(O)C(OC(=O)CC)C(C)O3)C(N(C)C)C2OC(C)=O)C1C (centres unmarked)", "TARGET OF ASSAY": "Streptococcus Group D X66", "REL": "=", "MIC (minimal inhibitory concentration)": 1}
{"COMPOUND": "CCC1OC(=O)CC(O)C(C)C(OC2OC(C)C(OC3CC(C)(O)C(OC(=O)Cc4ccccc4)C(C)O3)C(N(C)C)C2O)C(CC=O)CC(C)C(=O)C=CC(C)=CC1COC(=O)Cc1ccccc1 (centres unmarked)", "TARGET OF ASSAY": "Streptococcus Group D X66", "REL": "=", "MIC (minimal inhibitory concentration)": 0.5}
{"COMPOUND": "CCC1OC(=O)CC(O)C(C)C(OC2OC(C)C(OC3CC(C)(O)C(OC(=O)Cc4ccccc4)C(C)O3)C(N(C)C)C2OC(C)=O)C(CC=O)CC(C)C(=O)C=CC(C)=CC1C (centres unmarked)", "TARGET OF ASSAY": "Streptococcus Group D X66", "REL": ">", "MIC (minimal inhibitory concentration)": 128}
{"COMPOUND": "CCC1OC(=O)CC(O)C(C)C(OC2OC(C)C(OC3CC(C)(O)C(OC(=O)CC(C)C)C(C)O3)C(N(C)C)C2OC(C)=O)C(CC=O)CC(C)C(=O)C=CC(C)=CC1C (centres unmarked)", "TARGET OF ASSAY": "Streptococcus Group D X66", "REL": "=", "MIC (minimal inhibitory concentration)": 1}
{"COMPOUND": "CCC1OC(=O)CC(O)C(C)C(OC2OC(C)C(OC3CC(C)(O)C(OC(=O)CC(C)C)C(C)O3)C(N(C)C)C2O)C(CC=O)CC(C)C(=O)C=CC(C)=CC1C (centres unmarked)", "TARGET OF ASSAY": "Streptococcus Group D X66", "REL": "=", "MIC (minimal inhibitory concentration)": 1}
{"COMPOUND": "CCC1OC(=O)CC(OC(=O)COc2ccccc2)C(C)C(OC2OC(C)C(OC3CC(C)(O)C(O)C(C)O3)C(N(C)C)C2OC(C)=O)C(CC=O)CC(C)C(=O)C=CC(C)=CC1COC(=O)COc1ccccc1 (centres unmarked)", "TARGET OF ASSAY": "Streptococcus Group D X66", "REL": "=", "MIC (minimal inhibitory concentration)": 0.5}
{"COMPOUND": "CCC1OC(=O)CC(OC(=O)C(Cl)(Cl)Cl)C(C)C(OC2OC(C)C(OC3CC(C)(O)C(OC(=O)C(Cl)(Cl)Cl)C(C)O3)C(N(C)C)C2OC(C)=O)C(CC=O)CC(C)C(=O)C=CC(C)=CC1COC(=O)C(Cl)(Cl)Cl (centres unmarked)", "TARGET OF ASSAY": "Streptococcus Group D X66", "REL": "=", "MIC (minimal inhibitory concentration)": 16}
{"COMPOUND": "CCC(=O)OC1C(C)OC(OC2C(C)OC(OC3C(CC=O)CC(C)C(=O)C=CC(C)=CC(COC(=O)C(Cl)(Cl)Cl)C(CC)OC(=O)CC(O)C3C)C(OC(C)=O)C2N(C)C)CC1(C)O (centres unmarked)", "TARGET OF ASSAY": "Streptococcus Group D X66", "REL": "=", "MIC (minimal inhibitory concentration)": 2}
{"COMPOUND": "CCC(=O)OCC1C=C(C)C=CC(=O)C(C)CC(CC=O)C(OC2OC(C)C(OC3CC(C)(O)C(OC(=O)CC)C(C)O3)C(N(C)C)C2O)C(C)C(OC(=O)CC)CC(=O)OC1CC (centres unmarked)", "TARGET OF ASSAY": "Streptococcus Group D X66", "REL": "=", "MIC (minimal inhibitory concentration)": 1}
{"COMPOUND": "CCC1OC(=O)CC(O)C(C)C(OC2OC(C)C(OC3CC(C)(O)C(OC(=O)COc4ccccc4)C(C)O3)C(N(C)C)C2OC(C)=O)C(CC=O)CC(C)C(=O)C=CC(C)=CC1COC(=O)COc1ccccc1 (centres unmarked)", "TARGET OF ASSAY": "Streptococcus Group D X66", "REL": "=", "MIC (minimal inhibitory concentration)": 32}
